- system.tested: Glucagon-like peptide 1 receptor (Homo sapiens, UniProt P43220)
- Sequence (P43220 whole entry): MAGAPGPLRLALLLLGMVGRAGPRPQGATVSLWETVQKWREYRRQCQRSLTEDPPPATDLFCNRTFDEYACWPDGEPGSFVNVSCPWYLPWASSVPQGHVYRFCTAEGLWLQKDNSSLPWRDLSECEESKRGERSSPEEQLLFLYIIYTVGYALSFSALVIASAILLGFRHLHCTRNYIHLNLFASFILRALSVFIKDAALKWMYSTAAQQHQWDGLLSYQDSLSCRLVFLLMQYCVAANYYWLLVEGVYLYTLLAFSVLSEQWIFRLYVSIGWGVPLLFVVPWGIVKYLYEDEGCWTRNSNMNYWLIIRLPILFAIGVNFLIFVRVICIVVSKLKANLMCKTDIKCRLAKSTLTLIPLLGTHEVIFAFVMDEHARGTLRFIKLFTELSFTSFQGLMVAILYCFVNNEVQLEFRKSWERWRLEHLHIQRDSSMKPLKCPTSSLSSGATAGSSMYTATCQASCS
pEC50: −log10 of the molar value.
assay.readout: pEC50

(I) H-HAEGTFTADVAAYLEGQAAKEFIAWLVKGR-NH2
(II) H-HAEGAFTADVAAYLEGQAAKEFIAWLVKGR-NH2
[ask] Select one: I or II . Criterion: greater recorded pEC50. Use the label to indicate which entry you chose.
[reply] I

----------
- system.tested: Glucagon-like peptide 1 receptor (Homo sapiens)
assay.readout: pEC50
On this scale, pEC50 is minus log10 of a concentration expressed in M (mol/L).

Kindly note: Glucagon-like peptide 1 receptor (Homo sapiens), H-HAEGTFTADVAAYLEGQAAKEFIAWLVKGR-NH2 , pEC50 value reported: 6.10

Numbers sourced from ChEMBL document CHEMBL5126621.
